- tested system: CB1 (CNR1) (Homo sapiens)
- Sequence (P21554 whole entry): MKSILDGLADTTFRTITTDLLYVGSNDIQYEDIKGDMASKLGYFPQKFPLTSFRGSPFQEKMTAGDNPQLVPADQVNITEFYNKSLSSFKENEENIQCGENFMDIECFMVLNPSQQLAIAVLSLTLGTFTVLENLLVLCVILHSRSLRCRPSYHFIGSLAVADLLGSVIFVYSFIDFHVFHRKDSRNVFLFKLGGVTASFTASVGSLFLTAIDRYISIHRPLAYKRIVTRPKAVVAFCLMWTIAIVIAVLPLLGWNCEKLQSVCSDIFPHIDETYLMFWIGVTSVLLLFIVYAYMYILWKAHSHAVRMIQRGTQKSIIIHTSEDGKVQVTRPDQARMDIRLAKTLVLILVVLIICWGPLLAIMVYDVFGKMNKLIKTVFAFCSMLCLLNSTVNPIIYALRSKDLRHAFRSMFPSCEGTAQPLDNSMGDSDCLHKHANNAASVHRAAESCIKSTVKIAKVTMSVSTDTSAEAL
- protocol summary: cAMP CNR1 Hunter cell line antagonist assay (CB1 assay)
- Assay type: cell-based
- condition info: antagonist mode, cAMP CNR1 Hunter cells, EC80 agonist; read-out: CB1 assay, Efficacy (IC50)
pIC50: −log10 of the molar value.
Listed here: items and their measured pIC50.

COc1ccc(NS(=O)(=O)c2cc3c(cc2Br)NC(=O)CO3)cc1    > 6.00

Query string: Using known records, supply pIC50 for CCS(=O)(=O)c1cc2c(c(S(=O)(=O)Nc3ccc(Cl)cc3)c1)OCC(=O)N2
Result string: ≤ 4.60

Query string: For the compound Cc1ccc(NS(=O)(=O)c2cc(Br)cc3c2OCCC(=O)N3)cc1Cl , give its reported pIC50.
Result string: ≤ 4.60

Query string: Give the value of pIC50 reported for the following: COc1ccc(NS(=O)(=O)c2cc3c(cc2Cl)NC(=O)C(C)O3)cc1Cl (stereo not shown)
Result string: 4.60 to 6.00

Query string: Input CC1Oc2c(cc(Cl)cc2S(=O)(=O)Nc2ccccc2)NC1=O (stereo not shown) , output reported pIC50.
Result string: ≤ 4.60

Query string: Fill in pIC50 for record CCc1cccc(NS(=O)(=O)c2cc3c(cc2Cl)NC(=O)C(C)O3)c1 (stereo not shown)
Result string: ≤ 4.60

Query string: Give pIC50 for the following compound: CC1Oc2cc(S(=O)(=O)Nc3ccccc3)c(Cl)cc2NC1=O (stereo not shown)
Result string: ≤ 4.60

Query string: Give pIC50 for CC1Oc2c(cc(Br)cc2S(=O)(=O)N2CCOCC2)NC1=O (stereo not shown)
Result string: ≤ 4.60

Just for reference, patent US20240000806A1 is where these values come from.
